Target: AAK1 (Homo sapiens, UniProt Q2M2I8)
Construct: to maximize the representation of endogenous proteins; endogenous in cells
Sequence (Q2M2I8 whole entry): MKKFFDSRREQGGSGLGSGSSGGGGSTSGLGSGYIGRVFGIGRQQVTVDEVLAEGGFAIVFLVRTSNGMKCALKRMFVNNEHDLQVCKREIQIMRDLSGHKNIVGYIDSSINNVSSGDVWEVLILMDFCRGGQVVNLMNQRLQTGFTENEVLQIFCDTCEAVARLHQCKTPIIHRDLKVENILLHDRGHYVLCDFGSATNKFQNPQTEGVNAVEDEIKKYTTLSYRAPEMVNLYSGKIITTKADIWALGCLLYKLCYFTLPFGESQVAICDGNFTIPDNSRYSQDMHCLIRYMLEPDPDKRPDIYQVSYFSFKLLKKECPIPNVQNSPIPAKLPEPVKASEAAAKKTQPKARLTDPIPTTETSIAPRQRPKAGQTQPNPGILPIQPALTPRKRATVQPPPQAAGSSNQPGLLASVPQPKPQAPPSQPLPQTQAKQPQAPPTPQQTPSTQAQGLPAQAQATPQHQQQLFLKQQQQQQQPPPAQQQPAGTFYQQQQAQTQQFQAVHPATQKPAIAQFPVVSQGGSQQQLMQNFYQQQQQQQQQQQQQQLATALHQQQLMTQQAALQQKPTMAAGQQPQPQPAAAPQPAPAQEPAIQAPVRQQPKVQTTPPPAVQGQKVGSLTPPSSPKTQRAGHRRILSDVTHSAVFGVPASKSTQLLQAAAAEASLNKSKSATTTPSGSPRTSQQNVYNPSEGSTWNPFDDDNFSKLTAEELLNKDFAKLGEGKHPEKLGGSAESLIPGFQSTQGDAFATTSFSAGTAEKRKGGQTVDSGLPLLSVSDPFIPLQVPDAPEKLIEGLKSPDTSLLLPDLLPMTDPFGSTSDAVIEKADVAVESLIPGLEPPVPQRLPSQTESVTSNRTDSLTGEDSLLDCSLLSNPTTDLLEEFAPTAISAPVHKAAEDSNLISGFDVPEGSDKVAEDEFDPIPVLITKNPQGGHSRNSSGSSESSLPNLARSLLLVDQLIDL
Assay: Kinobeads two-dose competition binding: AAK1;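 note: kinobeads competition pulldown from cell lysate, compound preincubated 45 min at 4 °C, bead-bound protein measured by label-free mass spectrometry against DMSO vehicle control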
Conditions: sheet CATDS matrix 2; Gene Name AAK1
metric_name: CATDS

compound	metric_name	measured_result
O=S(=O)(c1cccc2cnccc12)N1CCCNCC1 [Fasudil, reference compound]	CATDS	0
CCn1cc(-c2ccnc3[nH]c(-c4cccc(CN(C)C)c4)cc23)c(-c2ccc(NC(=O)N(C)C)cc2)n1 [GSK1070916]	CATDS	0
c1ccc(Cc2nc3ccc(Nc4ncnc5ccccc45)cc3[nH]2)cc1 [GR269666A_KCGS]	CATDS	0
COc1ccc(Nc2nccc(N3CCC(NC(=O)c4cc5ccccc5s4)C3)n2)cc1 (stereo not shown) [GSK1379738A]	CATDS	0

====

Biological target: ABL2 (Homo sapiens, UniProt P42684)
Construct: endogenous in cells
Sequence (P42684 whole entry): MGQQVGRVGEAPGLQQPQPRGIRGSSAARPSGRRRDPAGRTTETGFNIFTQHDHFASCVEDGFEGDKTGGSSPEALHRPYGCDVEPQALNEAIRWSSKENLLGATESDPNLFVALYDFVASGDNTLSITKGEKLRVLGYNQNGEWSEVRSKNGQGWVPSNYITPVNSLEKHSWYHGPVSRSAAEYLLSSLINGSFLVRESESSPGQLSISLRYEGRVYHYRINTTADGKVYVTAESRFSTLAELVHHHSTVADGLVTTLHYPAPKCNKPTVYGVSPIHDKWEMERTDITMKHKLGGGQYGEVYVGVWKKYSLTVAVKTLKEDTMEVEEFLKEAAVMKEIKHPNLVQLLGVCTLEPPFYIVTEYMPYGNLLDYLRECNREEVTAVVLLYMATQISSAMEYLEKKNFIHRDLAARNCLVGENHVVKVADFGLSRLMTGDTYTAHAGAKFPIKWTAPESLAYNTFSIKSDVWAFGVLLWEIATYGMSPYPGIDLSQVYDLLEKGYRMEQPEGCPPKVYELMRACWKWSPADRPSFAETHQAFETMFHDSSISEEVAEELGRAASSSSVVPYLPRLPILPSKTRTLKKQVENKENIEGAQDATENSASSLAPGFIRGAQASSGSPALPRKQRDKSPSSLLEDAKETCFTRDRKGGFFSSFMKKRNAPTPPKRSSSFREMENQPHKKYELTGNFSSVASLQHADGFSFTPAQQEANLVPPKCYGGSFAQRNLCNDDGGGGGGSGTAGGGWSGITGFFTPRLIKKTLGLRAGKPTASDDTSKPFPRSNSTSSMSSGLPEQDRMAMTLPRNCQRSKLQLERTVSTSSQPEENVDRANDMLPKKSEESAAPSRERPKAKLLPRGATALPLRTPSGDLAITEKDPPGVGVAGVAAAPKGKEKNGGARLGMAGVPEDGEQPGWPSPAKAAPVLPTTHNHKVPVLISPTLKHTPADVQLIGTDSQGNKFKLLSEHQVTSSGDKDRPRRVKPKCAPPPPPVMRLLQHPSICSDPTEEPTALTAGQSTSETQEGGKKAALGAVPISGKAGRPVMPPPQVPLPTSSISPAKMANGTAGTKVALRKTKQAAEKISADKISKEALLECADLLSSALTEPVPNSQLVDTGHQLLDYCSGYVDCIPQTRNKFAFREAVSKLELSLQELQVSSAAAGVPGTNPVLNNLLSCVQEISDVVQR
Assay: Kinobeads two-dose competition binding: ABL2
Settings: sheet CATDS matrix 2; Gene Name ABL2
metric_name: CATDS

compound	CATDS
Cc1nc(Nc2ncc(C(=O)Nc3c(C)cccc3Cl)s2)cc(N2CCN(CCO)CC2)n1 [Dasatinib, reference compound]	0.1826
COc1ccc(Nc2nccc(NCCNC(=O)Nc3cc(C)ccc3C)n2)cc1 [GSK1379899A]	0

A = CC(=O)N1CCN(c2ccc(Nc3nccc(-c4sc(C(C)C)nc4-c4cccc(NS(=O)(=O)c5cccc(Cl)c5)c4)n3)cn2)CC1 [GSK1660437A]
B = O=C1Nc2ccccc2/C1=C1\CCc2cc(O)ccc21 [GR105659X]
C = Clc1cc(Cl)cc(Nc2ccnc(Nc3cc(Cl)cc(Cl)c3)n2)c1 [GSK175726A]
Ask | Sort entries by CATDS from minimum to maximum value. Record the ranking as a list of labels in the requested order.
Reply | B, A, C
(B: 0, A: 0.07869, C: 0.1551)

1 = CC(=O)N1CCN(c2ccc(Nc3nccc(-c4sc(C(C)C)nc4-c4cccc(NS(=O)(=O)c5ccccc5)c4)n3)cn2)CC1 [GSK1645872A]
2 = NCCC(NC(=O)c1cc(Br)c(-c2ccnc3[nH]ccc23)s1)c1ccccc1 (centres unmarked) [GSK1307810A]
Ask | # min-compare on CATDS between 1 and 2 Write down the label of the entry you select.
Reply | 2

====

Molecular target: PKN3 (Homo sapiens)
Sequence (Q6P5Z2 whole entry): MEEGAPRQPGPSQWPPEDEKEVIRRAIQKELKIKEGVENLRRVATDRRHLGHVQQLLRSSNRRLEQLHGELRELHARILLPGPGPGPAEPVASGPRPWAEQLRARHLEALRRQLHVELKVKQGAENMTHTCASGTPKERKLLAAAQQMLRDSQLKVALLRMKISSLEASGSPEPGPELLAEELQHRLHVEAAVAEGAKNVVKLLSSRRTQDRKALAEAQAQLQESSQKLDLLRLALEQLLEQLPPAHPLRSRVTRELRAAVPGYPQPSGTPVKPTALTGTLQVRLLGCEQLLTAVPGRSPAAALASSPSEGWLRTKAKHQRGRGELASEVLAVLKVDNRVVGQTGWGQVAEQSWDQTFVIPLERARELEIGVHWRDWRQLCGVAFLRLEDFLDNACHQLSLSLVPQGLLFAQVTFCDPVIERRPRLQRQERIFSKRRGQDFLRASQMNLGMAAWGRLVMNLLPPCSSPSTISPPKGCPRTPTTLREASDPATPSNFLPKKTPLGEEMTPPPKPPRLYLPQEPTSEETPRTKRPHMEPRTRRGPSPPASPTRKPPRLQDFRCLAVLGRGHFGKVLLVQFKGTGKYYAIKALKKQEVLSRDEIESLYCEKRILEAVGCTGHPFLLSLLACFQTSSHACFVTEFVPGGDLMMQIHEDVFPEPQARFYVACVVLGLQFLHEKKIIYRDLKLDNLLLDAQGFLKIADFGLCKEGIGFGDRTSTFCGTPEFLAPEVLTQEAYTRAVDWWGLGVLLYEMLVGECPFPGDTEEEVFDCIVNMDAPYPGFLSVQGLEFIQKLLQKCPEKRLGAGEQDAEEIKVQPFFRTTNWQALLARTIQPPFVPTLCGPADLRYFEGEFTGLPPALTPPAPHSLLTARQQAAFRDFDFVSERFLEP
Experiment: NanoBRET in-cell target engagement in HEK293T cells: PKN3;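 note: Full-length PKN3 with C-terminal NanoLuc expressed in HEK293T cells, serial inhibitor dilutions competing against Kinase Tracer K5 at 500 nM, BRET read after 2 h at 37 °C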
Format: cell-based
Design: full-length PKN3, CSNK2A1 or CSNK2A2 ORF; host or cells: HEK293T
Details: biological replicate number 3; read-out: Rep 3 IC50 NanoBRET PKN3
pIC50: −log10 of the molar value.
metric_name: pIC50

Example molecules with recorded pIC50:
molecule	measured_result
CCn1c(-c2nonc2N)nc2c(C#CCN)ncc(OCCCN)c21 [GSK561866B]	5.31
ON=C1CCc2cc(-c3nc(C4CCNCC4)[nH]c3-c3ccncc3)ccc21	4.30

A = CCn1c(-c2nonc2N)nc2c(-c3ccccc3)ncc(OCCCN)c21 [GSK260205A]
B = CCn1c(-c2nonc2N)nc2c(C#CC(C)(C)O)nc(OC[C@@H](N)c3ccccc3)cc21 [GSK938890A]
Ask | # min-compare on pIC50 between A and B Write down the label of the entry you select.
Reply | B

Sourced from paper PMC11062922
